Tested on: M14 melanoma
assay-name: NCI tumour cell line growth inhibition, 48 h; in the data active means GI50 below about 0.43 µM; inactive means the rest
Return exactly one item of 1.0 = active, 0.0 = inactive

These solved cases illustrate the format of a correct answer.
{"compound": "[CH3][Sn]1([CH3])[O]CC(COc2cc(Cl)c(Cl)cc2Cl)[O]1 (stereo not given)", "assigned-category": 0.0}
{"compound": "Cc1c(Cl)cccc1NC(=O)c1sc2nc3c(cc2c1N)CCCC3", "assigned-category": 1.0}
{"compound": "Nc1nc(N)c2c(n1)NC(c1sc(Cl)nc1Cl)CC(c1ccc3c(c1)OCO3)=N2 (stereo not given)", "assigned-category": 0.0}
{"compound": "COc1ccc(C2=NC(c3ccc(Cl)cc3)C(c3ccc(Cl)cc3)N2C(=O)N2CCNC(=O)C2)c(OC(C)C)c1 (stereo not given)", "assigned-category": 0.0}

Turning now to a further record.
Query: What outcome does the record of this test show for CCCN1CCC=C(c2ccc(Nc3nc(Nc4ccccc4C(N)=O)c4cc[nH]c4n3)c(C)c2)C1 ?
Response: 0.0
